Please go through the items and note down their Kd.
# target-or-system: Met-enkephalin (Homo sapiens)
# assay-protocol: UV spectroscopy
# condition-label: modification not given
One number for each entry, in µM.

Some binders with recorded Kd:
binder=KYRQGSIDCTLTFSHP val=1
binder=TLPFQSVNYL val=90

For `NLALADALATST` , what is its reported Kd?
80

Provenance of the data: paper PMC5796218
